Data origin, for the record: BindingDB's records for doi:10.1021/jm00177a009

# subject_of_test: DNA polymerase beta (Mus musculus, UniProt Q8K409)
# experiment_summary: ChEBML_50773
readout_name: IC50 (µM)

Some entries whose results are on file:
>  <compound>
COC1/C=C/OC2(C)Oc3c(C)c(O)c4c(O)c(ccc4c3C2=O)NC(=O)/C(C)=C\C=C\C(C)C(O)C(C)C(O)C(C)C(OC(C)=O)C1C (configuration not stated)

>  <unit>
µM

>  <IC50>
1100

$$$$
>  <compound>
COc1cccc(CN2CCN(/N=C/c3cc4c5c6c(C)c(O)c4c(O)c3NC(=O)/C(C)=C\C=C\C(C)C(O)C(C)C(O)C(C)C(OC(C)=O)C(C)C(OC)/C=C/OC(C)(O6)C5=O)CC2)c1 (configuration not stated)

>  <unit>
µM

>  <IC50>
120

$$$$

A: COC1/C=C/OC2(C)Oc3c(C)c(O)c4c(O)c(c(C=O)cc4c3C2=O)NC(=O)/C(C)=C\C=C\C(C)C(O)C(C)C(O)C(C)C(OC(C)=O)C1C (configuration not stated)
B: COC1/C=C/OC2(C)Oc3c(C)c(O)c4c(O)c(c(CN5CCNCC5)cc4c3C2=O)NC(=O)/C(C)=C\C=C\C(C)C(O)C(C)C(O)C(C)C(OC(C)=O)C1C (configuration not stated)
C: COC1/C=C/OC2(C)Oc3c(C)c(O)c4c(O)c(c(O)cc4c3C2=O)NC(=O)/C(C)=C\C=C\C(C)C(O)C(C)C(O)C(C)C(OC(C)=O)C1C (configuration not stated)
D: COC1/C=C/OC2(C)Oc3c(C)c(O)c4c(O)c(c(/C=N/N5CCCC5)cc4c3C2=O)NC(=O)/C(C)=C\C=C\C(C)C(O)C(C)C(O)C(C)C(OC(C)=O)C1C (configuration not stated)
E: COC1/C=C/OC2(C)Oc3c(C)c(O)c4c(O)c(c(/C=N/N5CCN(C)CC5)cc4c3C2=O)NC(=O)/C(C)=C\C=C\C(C)C(O)C(C)C(O)C(C)C(OC(C)=O)C1C (configuration not stated)
Kindly order the items shown according to IC50, from the highest value down. Answer format: the labels, ordered as requested.
B, C, D, E, A
